B1: PhoQ; a variant is named by its letters at X, in order, P23837 (parent)
chain: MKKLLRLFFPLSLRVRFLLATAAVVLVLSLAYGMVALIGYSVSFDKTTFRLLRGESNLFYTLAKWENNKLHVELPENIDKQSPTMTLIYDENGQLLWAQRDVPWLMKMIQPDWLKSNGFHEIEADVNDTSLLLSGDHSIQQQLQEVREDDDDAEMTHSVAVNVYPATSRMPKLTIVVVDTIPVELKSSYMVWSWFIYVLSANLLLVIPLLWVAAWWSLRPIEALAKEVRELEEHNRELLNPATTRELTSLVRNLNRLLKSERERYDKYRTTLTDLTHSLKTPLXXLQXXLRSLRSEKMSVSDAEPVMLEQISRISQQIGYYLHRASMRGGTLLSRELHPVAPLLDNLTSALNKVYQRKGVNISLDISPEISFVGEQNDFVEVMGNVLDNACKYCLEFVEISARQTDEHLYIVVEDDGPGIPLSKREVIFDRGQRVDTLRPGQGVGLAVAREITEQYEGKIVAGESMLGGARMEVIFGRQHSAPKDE

- Variants of: B1
- assay_remarks: enrichment ratio after two sorts for PhoP signalling (ratio (wild type AVST 3.29)); higher = more functional
- reported_conditions: with PhoP (E. coli)
Whole data set: some 140,000 sequences, median “enrichment ratio after two sorts for PhoP signalling” near 0, cut for the highest 2% near 11. The list comes from a sample in which the highest values are over-represented; it also holds close analogues and randomly drawn sequences.
measured_quantity: enrichment ratio

Example results:
NMAI	≤ 0.25
QESI	7.8
TMNA	24.8

Go through the items and report each one's enrichment ratio.
1. YSWM
2. ADCV
3. IRNN
4. TMND
5. TMNT
6. TMTD
7. EFTF
8. KCAG

## Result
["≤ 0.25", "≤ 0.25", "≤ 0.25", 21.9, 11.9, "≤ 0.25", "≤ 0.25", "≤ 0.25"]
